The measured values listed here are drawn from ChEMBL document CHEMBL4699472.

# Measurement Protocol: Intrinsic clearance in human liver microsomes
# Assay type: ADME, Microsome
# Study Conditions: read-out: CLH
Hi there, I'd appreciate the recorded microsomal CLint for every entry that follows.
Answers are plain numbers, in µL/min/mg.

{"Given Smiles": "CNC(=O)c1nc(C)n2ccc(Nc3nccc(-n4cc(OCCN)cn4)n3)cc12", "microsomal CLint (µL/min/mg)": 7}

Report microsomal CLint for each item below.
1. CNC(=O)c1nn(C)c2ccc(Nc3nccc(-n4cc(N[C@@H]5CCOC[C@@H]5N)cn4)n3)cc12
2. CNC(=O)c1nc(C)n2ccc(Nc3nccc(-n4cc(CN(C)C)cn4)n3)cc12

A.
1: 17; 2: 20

Report microsomal CLint for each item below.
1. CNC(=O)c1nc(C)n2ccc(Nc3nccc(-n4cc(N[C@@H]5CCOC[C@@H]5N)cn4)n3)cc12
2. CNC(=O)c1nn(C)c2ccc(Nc3nccc(-n4cc(N[C@@H]5CCOC[C@@H]5N)c(C)n4)n3)cc12
3. Cc1nn(-c2ccnc3[nH]c(-c4cccc5c4ccn5C)nc23)cc1CN(C)C
4. CNC(=O)c1nn(C)c2ccc(Nc3nccc(-n4cc(O[C@@H]5CCCNC5)c(C)n4)n3)cc12

A.
[20, 32, 37, 8]

Report microsomal CLint for each item below.
1. CNC(=O)c1nn(C)c2ccc(Nc3nccc(-n4cc(NC5CNC5)c(C)n4)n3)cc12
2. Cc1nn(-c2ccnc(Nc3ccc4c(c3)c(C(=O)C(F)(F)F)cn4C)n2)cc1N[C@@H]1CCOC[C@@H]1N

A.
[8, 71]

Report microsomal CLint for each item below.
1. Cc1nnc(-c2nn(C)c3ccc(Nc4nccc(-n5cc(N[C@@H]6CCOC[C@@H]6N)c(C)n5)n4)cc23)o1
2. CNC(=O)c1nn(C)c2ccc(Nc3nccc(-n4cc(NCC5(N)CC5)c(C)n4)n3)cc12
3. CNC(=O)c1nn(C)c2ccc(Nc3nccc(-n4cc(O[C@H]5CNC[C@H]5F)c(C)n4)n3)cc12
4. CNC(=O)c1nn(C)c2ccc(Nc3nccc(-n4cc(N[C@H]5CNC[C@@H]5F)c(C)n4)n3)cc12
5. CNC(=O)c1nc(C)n2ccc(Nc3nccc(-n4cc(N[C@@H]5CCOC[C@@H]5N)c(C)n4)n3)cc12

A.
1. 129
2. 28
3. 44
4. 28
5. 32

====

# Measurement Protocol: Clearance in Han Wistar rat at 2 umol/kg, po and 1 umol/kg, iv
# Type: ADME, organism-based
# Study Conditions: in vivo, dose 1 µmol/kg
Readout Name: clearance (mL/min/kg)
One number for each entry, in mL/min/kg.

As a guide, the following entries are already answered.
{"Given Smiles": "CNC(=O)c1nn(C)c2ccc(Nc3nccc(-n4cc(N[C@@H]5CCOC[C@@H]5N)c(C)n4)n3)cc12", "clearance / mL/min/kg": 76}
{"Given Smiles": "CNC(=O)c1nn(C)c2ccc(Nc3nccc(-n4cc(NCC5(N)CC5)c(C)n4)n3)cc12", "clearance / mL/min/kg": 13}
{"Given Smiles": "CNC(=O)c1nn(C)c2ccc(Nc3nccc(-n4cc(N[C@@H]5CCOC[C@@H]5N)cn4)n3)cc12", "clearance / mL/min/kg": 82}
{"Given Smiles": "CNC(=O)c1nn(C)c2ccc(Nc3nccc(-n4cc(N[C@@H]5CCNC5)c(C)n4)n3)cc12", "clearance / mL/min/kg": 60}

Q. Indicate its recorded clearance; the compound in question is CNC(=O)c1nn(C)c2ccc(Nc3nccc(-n4cc(N[C@@H]5CCCNC5)c(C)n4)n3)cc12
A. 78

====

# Measurement Protocol: Intrinsic clearance in rat hepatocytes measured per million cells
# Assay type: ADME, cell-based, Hepatocyte
# Study Conditions: read-out: CLH
Readout Name: log10(hepatocyte CLint) (log10 of the value in µL/min/1e6 cells)
Heads up: the numbers are on a log10 scale; they represent hepatocyte CLint in µL/min/1e6 cells.

As a guide, the following entries are already answered.
{"Given Smiles": "CNC(=O)c1nn(C)c2ccc(Nc3nccc(-n4cc(N[C@H]5CNC[C@@H]5F)c(C)n4)n3)cc12", "log10(hepatocyte CLint)": 0.90}
{"Given Smiles": "CNC(=O)c1nn(C)c2ccc(Nc3nccc(-n4cc(O[C@@H]5CCCNC5)c(C)n4)n3)cc12", "log10(hepatocyte CLint)": 0.95}
{"Given Smiles": "CNC(=O)c1nn(C)c2ccc(Nc3nccc(-n4cc(O[C@H]5CNC[C@H]5F)c(C)n4)n3)cc12", "log10(hepatocyte CLint)": 1.40}
{"Given Smiles": "CNC(=O)c1nn(C)c2ccc(Nc3nccc(-n4cc(N[C@@H]5CCOC[C@@H]5N)c(C)n4)n3)cc12", "log10(hepatocyte CLint)": 0.90}
{"Given Smiles": "CNC(=O)c1nn(C)c2ccc(Nc3nccc(-n4cc(O[C@@H]5CCNC5)c(C)n4)n3)cc12", "log10(hepatocyte CLint)": 1.11}
{"Given Smiles": "CNC(=O)c1nc(C)n2ccc(Nc3nccc(-n4cc(N[C@@H]5CCOC[C@@H]5N)cn4)n3)cc12", "log10(hepatocyte CLint)": 1.15}

Report log10(hepatocyte CLint) for each item below.
1. Cc1nn(-c2ccnc(Nc3ccc4c(c3)c(C(=O)C(F)(F)F)cn4C)n2)cc1N[C@@H]1CCOC[C@@H]1N
2. Cc1nnc(-c2nn(C)c3ccc(Nc4nccc(-n5cc(N[C@@H]6CCOC[C@@H]6N)c(C)n5)n4)cc23)o1
3. CNC(=O)c1nc(C)n2ccc(Nc3nccc(-n4cc(OCCN)cn4)n3)cc12
4. CNC(=O)c1nn(C)c2ccc(Nc3nccc(-n4cc(N[C@@H]5CCOC[C@@H]5N)cn4)n3)cc12
5. CNC(=O)c1nn(C)c2ccc(Nc3nccc(-n4cc(OC5CNC5)c(C)n4)n3)cc12
6. CNC(=O)c1nn(C)c2ccc(Nc3nccc(-n4cc(N[C@@H]5CCNC5)c(C)n4)n3)cc12

A.
1. 0.90
2. 1.23
3. 1.15
4. 0.60
5. 1.11
6. 0.48

Report log10(hepatocyte CLint) for each item below.
1. CNC(=O)c1nn(C)c2ccc(Nc3nccc(-n4cc(N[C@@H]5CCCNC5)c(C)n4)n3)cc12
2. CNC(=O)c1nn(C)c2ccc(Nc3nccc(-n4cc(NCC5(N)CC5)c(C)n4)n3)cc12
3. CNC(=O)c1nc(C)n2ccc(Nc3nccc(-n4cc(N[C@@H]5CCOC[C@@H]5N)c(C)n4)n3)cc12
4. CNC(=O)c1nc(C)n2ccc(Nc3nccc(-n4cc(NCCN)cn4)n3)cc12

A.
[0.48, 0.90, 0.78, 0.30]

Q. Indicate its recorded log10(hepatocyte CLint); the compound in question is CNC(=O)c1nc(C)n2ccc(Nc3nccc(-n4cc(CN(C)C)cn4)n3)cc12
A. 1.11

====

# Measurement Protocol: Dissociation constant, pKa of the compound
# Format: physicochemical
Readout Name: pKa
One number for each entry.

{"Given Smiles": "CNC(=O)c1nn(C)c2ccc(Nc3nccc(-n4cc(N[C@H]5CNC[C@@H]5F)c(C)n4)n3)cc12", "Readout Name": "pKa", "Value Observed": 7.8}

# ---- query compound ----
Q. Indicate its recorded pKa; the compound in question is CNC(=O)c1nn(C)c2ccc(Nc3nccc(-n4cc(N[C@@H]5CCNC5)c(C)n4)n3)cc12
A. 9.5

====

# Measurement Protocol: Volume of distribution at steady state in Beagle dog at 2 umol/kg, po and 1 umol/kg, iv
# Assay type: ADME, organism-based, Canis lupus familiaris
# Study Conditions: in vivo, dose 2 µmol/kg, read-out: Vdss
Readout Name: Vd (L/kg)
One number for each entry, in L/kg.

Q. Indicate its recorded Vd; the molecule in question is CNC(=O)c1nn(C)c2ccc(Nc3nccc(-n4cc(N[C@@H]5CCOC[C@@H]5N)cn4)n3)cc12
A. 5.7

====

# Measurement Protocol: Clearance in Beagle dog at 2 umol/kg, po and 1 umol/kg, iv
# Format: ADME, organism-based, Canis lupus familiaris
# Study Conditions: in vivo, dose 2 µmol/kg
Readout Name: clearance (mL/min/kg)
Give bare numbers, in mL/min/kg.

Q. Indicate its recorded clearance; the compound in question is CNC(=O)c1nn(C)c2ccc(Nc3nccc(-n4cc(N[C@@H]5CCOC[C@@H]5N)cn4)n3)cc12
A. 16

====

Hi there, I'd appreciate the recorded IC50 for every entry that follows.
# System: Voltage-gated inwardly rectifying potassium channel KCNH2 (Homo sapiens)
# Sequence (Q12809 whole entry): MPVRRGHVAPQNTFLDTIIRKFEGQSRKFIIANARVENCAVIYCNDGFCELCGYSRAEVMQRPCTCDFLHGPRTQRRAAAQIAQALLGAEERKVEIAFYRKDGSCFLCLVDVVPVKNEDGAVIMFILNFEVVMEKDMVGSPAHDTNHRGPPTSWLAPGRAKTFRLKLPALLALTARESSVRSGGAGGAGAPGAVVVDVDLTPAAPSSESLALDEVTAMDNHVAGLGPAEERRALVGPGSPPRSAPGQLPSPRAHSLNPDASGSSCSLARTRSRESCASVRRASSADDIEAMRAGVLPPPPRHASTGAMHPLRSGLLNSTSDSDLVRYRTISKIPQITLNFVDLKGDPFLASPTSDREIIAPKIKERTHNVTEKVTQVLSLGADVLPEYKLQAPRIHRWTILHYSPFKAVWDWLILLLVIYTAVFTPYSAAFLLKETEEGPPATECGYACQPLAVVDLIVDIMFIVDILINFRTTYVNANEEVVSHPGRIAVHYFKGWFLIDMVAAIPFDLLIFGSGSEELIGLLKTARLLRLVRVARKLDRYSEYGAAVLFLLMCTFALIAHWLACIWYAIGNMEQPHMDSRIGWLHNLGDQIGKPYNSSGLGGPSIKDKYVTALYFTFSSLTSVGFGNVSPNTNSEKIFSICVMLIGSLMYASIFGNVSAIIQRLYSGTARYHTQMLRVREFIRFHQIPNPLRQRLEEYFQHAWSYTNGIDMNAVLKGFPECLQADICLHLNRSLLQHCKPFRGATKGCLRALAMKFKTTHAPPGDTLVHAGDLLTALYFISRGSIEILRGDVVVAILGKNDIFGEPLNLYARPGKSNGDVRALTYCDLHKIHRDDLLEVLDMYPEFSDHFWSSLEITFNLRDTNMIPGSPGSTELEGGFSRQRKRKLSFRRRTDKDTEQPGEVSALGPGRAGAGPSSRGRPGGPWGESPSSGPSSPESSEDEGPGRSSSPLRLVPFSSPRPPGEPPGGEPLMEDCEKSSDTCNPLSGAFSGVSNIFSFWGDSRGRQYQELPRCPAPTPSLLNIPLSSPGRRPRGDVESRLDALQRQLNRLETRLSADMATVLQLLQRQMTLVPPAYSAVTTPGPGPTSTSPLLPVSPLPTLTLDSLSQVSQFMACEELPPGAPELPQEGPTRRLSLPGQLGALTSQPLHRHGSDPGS
# Measurement Protocol: Inhibition of human ERG assessed as tail current by plate-based planar patch clamp assay
Answers are plain numbers, in µM.

{"Given Smiles": "CNC(=O)c1nn(C)c2ccc(Nc3nccc(-n4cc(N[C@H]5CNC[C@@H]5F)c(C)n4)n3)cc12", "Unit Text": "µM", "IC50": 19}
{"Given Smiles": "CNC(=O)c1nc(C)n2ccc(Nc3nccc(-n4cc(CN(C)C)cn4)n3)cc12", "Unit Text": "µM", "IC50": 7.1}
{"Given Smiles": "CNC(=O)c1nn(C)c2ccc(Nc3nccc(-n4cc(O[C@@H]5CCNC5)c(C)n4)n3)cc12", "Unit Text": "µM", "IC50": 5.2}

# ---- query compound ----
Q. Indicate its recorded IC50; the compound in question is CNC(=O)c1nn(C)c2ccc(Nc3nccc(-n4cc(O[C@@H]5CCCNC5)c(C)n4)n3)cc12
A. 2.5
